Test system: SK-MEL-2 melanoma
protocol-summary: NCI tumour cell line growth inhibition, 48 h
Each record here notes measured TGI.

Record excerpt, results attached:
[
  {
    "molecule": "O=C(O)C1Cc2ccccc2OC1=O (stereo not drawn)",
    "TGI": "> 100 µM"
  },
  {
    "molecule": "CC[C@@]1(O)C(=O)OCc2c1cc1n(c2=O)Cc2c-1nc1ccccc1c2/C=N\\NC(=O)C(N)=O",
    "TGI": "> 77.8 µM"
  },
  {
    "molecule": "Clc1ccc2c(NCCN3CCN(c4ccnc(N5CCCC5)n4)CC3)ccnc2c1",
    "TGI": "6.77 µM"
  },
  {
    "molecule": "O/N=C1/C(=C/c2ccc(Cl)cc2)CCCC1C(NO)c1ccc(Cl)cc1 (stereo not drawn)",
    "TGI": "68.5 µM"
  },
  {
    "molecule": "CCc1c(-c2coc(CC/C(C)=C/c3ccccc3)n2)oc(OC)c(C)c1=O",
    "TGI": "> 100 µM"
  }
]

Please look up its TGI: Cc1ccc(C(=O)/C=C/N2CCN(c3cccc(C(F)(F)F)c3)CC2)cc1 34.8 µM

Name the reported TGI value associated with the molecule Cn1nc2ccc3nccc(NCCNCCCl)c3c2n1 > 100 µM

Can you share its TGI? I mean this molecule: Nc1n[n+]([O-])c2cnccc2[n+]1[O-] > 100 µM
